Values from ChEMBL document CHEMBL2028040

assay: MMV: Cytotoxicity against human fibroblasts (MRC-5) cells.; conditions: MRC-5 cells (human fibroblasts)
Kindly supply the reported IC50 values for the records listed here.
Give bare numbers, in µM.

Check out these entries, answers already filled in.
COCCN(C(=O)Cc1cccs1)C(C(=O)NCc1ccc(OC)cc1)c1ccc(C(C)C)cc1 (configuration not stated) = 27
COc1ccc2c(=O)cc(C(Cl)(Cl)Cl)oc2c1 = 7.58
COCCNCC(O)Cn1c2ccc(Cl)cc2c2cc(Cl)ccc21 (configuration not stated) = 4.81
O=C(Nc1ccc(N2CCCCC2)c(Cl)c1)c1ccc(Br)o1 = 26.8
COc1ccc(/C=C2/SC(=Nc3ccccc3)NC2=O)cc1 = 11.5

I would be grateful if you could provide IC50 for each of the following entries.
1. CCn1c2c(c(=N)c3c1CCC3)CCCC2
2. O=C(CCl)NCCOc1ccc(Cl)cc1Cl
3. CC(C)(C)CC(C)(C)NCC(O)COc1ccc(Cl)cc1Cl (configuration not stated)
4. c1ccc(Cn2c(N=Nc3c(Nc4ccccc4)ccc4ccccc34)nc3ccccc32)cc1
5. CCOC(=O)C1=C(C)N=c2sc(=Cc3cc(Cl)ccc3O)c(=O)n2C1c1ccc(OC)cc1 (configuration not stated)

Response given:
32
16.2
16.1
0.389
16.6

Challenge: Would you kindly share the measured IC50 for O=C1c2ccc3c4c(ccc(c24)C(=O)N1CCCCO)C(=O)N(CCCCO)C3=O ?
Response given: 13.8
